For each of the molecules below, state its hERG current change (%, negative = inhibition) at 10uM.
measured.on: human ether-à-go-go-related gene (hERG) potassium channel (human)
Sequence (Q12809 whole entry, looked up): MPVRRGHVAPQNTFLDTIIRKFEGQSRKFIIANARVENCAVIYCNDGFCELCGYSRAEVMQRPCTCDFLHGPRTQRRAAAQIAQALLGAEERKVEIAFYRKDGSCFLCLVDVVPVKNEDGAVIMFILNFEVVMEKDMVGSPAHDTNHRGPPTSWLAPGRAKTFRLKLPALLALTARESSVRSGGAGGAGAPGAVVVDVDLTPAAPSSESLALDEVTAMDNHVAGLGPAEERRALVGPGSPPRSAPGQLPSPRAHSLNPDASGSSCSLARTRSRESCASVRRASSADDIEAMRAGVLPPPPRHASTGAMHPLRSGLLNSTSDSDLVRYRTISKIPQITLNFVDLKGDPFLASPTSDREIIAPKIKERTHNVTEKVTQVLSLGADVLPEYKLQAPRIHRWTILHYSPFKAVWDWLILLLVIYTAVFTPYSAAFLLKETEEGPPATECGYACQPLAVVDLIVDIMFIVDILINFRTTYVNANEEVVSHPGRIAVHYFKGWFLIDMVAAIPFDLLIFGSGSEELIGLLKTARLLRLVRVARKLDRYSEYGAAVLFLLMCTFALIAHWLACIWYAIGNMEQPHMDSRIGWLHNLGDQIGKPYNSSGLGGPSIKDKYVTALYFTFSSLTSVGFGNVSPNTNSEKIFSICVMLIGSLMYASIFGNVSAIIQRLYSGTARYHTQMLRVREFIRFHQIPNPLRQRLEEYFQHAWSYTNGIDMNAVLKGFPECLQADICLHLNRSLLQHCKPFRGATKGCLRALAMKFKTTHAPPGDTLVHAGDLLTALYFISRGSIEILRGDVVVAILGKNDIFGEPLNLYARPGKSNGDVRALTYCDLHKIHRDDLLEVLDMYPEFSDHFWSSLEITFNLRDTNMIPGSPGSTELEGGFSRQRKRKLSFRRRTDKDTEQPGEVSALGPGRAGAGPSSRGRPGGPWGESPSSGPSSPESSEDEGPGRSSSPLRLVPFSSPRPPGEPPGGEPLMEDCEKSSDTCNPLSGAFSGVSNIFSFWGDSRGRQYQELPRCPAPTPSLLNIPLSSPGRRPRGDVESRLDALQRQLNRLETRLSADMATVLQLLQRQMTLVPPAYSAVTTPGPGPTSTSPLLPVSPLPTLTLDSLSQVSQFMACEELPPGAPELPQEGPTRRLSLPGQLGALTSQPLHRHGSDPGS
assay.info: primary screen, population patch clamp on CHO cells stably expressing hERG; higher = less effect of the substance;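 further: peak tail current of the secondary pulse compared with the same well before compound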
Screen size: about 310,000 compounds; about 14,000 (4.5%) showed an effect of 50% or more. The effect is printed as a negative number. This is one part of a sample in which strong results are shown more often than they occur.
Answer with a number only, understood to be in %.

Quick check: hERG current change (%, negative = inhibition) at 10uM of O=C(COc1cccc(-n2cnnn2)c1)Nc1ccccc1 ?
-26.4

Quick check: hERG current change (%, negative = inhibition) at 10uM of COc1cccc(-c2ccc3nnc(SCC(=O)N4CCCC4)n3n2)c1 ?
-17.1

Quick check: hERG current change (%, negative = inhibition) at 10uM of COc1ccc(NC(=O)COc2cccc(-n3cnnn3)c2)cc1 ?
-54.3

Quick check: hERG current change (%, negative = inhibition) at 10uM of CC1(C)Cc2cccc(OCC(=O)N3CCN(S(=O)(=O)c4ccc(F)cc4)CC3)c2O1 ?
-21.6

Quick check: hERG current change (%, negative = inhibition) at 10uM of COc1cccc(NC(=O)COc2cccc(-n3cnnn3)c2)c1 ?
-50.8

Quick check: hERG current change (%, negative = inhibition) at 10uM of CCc1ccc(NC(=O)COc2cccc(-n3cnnn3)c2)cc1 ?
-68

Quick check: hERG current change (%, negative = inhibition) at 10uM of CC1(C)Cc2cccc(OCC(=O)N3CCN(c4cccc(C(F)(F)F)c4)CC3)c2O1 ?
1.57

Quick check: hERG current change (%, negative = inhibition) at 10uM of CC1(C)Cc2cccc(OCC(=O)N3CCN(c4ccccc4F)CC3)c2O1 ?
-22.4

Quick check: hERG current change (%, negative = inhibition) at 10uM of Cc1cccc(N2CCN(C(=O)COc3cccc4c3OC(C)(C)C4)CC2)c1C ?
-2.16

Quick check: hERG current change (%, negative = inhibition) at 10uM of Cc1ccc(NC(=O)COc2cccc(-n3cnnn3)c2)cc1[N+](=O)[O-] ?
-0.307

----------
For each of the molecules below, state its hERG current change (%, negative = inhibition) at 10uM.
measured.on: human ether-à-go-go-related gene (hERG) potassium channel (human)
assay.info: primary screen, population patch clamp on CHO cells stably expressing hERG; higher = less effect of the substance
Out of some 310,000 compounds screened, about 14,000 (4.5%) showed an effect of 50% or more. The effect is printed as a negative number. Only a selection was taken, and strong results are over-represented in it overall.
Answer with a number only, understood to be in %.

Quick check: hERG current change (%, negative = inhibition) at 10uM of O=C(c1sc2ccccc2c1Cl)N1CCN(c2ncccn2)CC1 ?
-9.78

Quick check: hERG current change (%, negative = inhibition) at 10uM of O=C(N/N=C/c1cccc(Br)c1)c1ccc(N2CCCC2=O)cc1 ?
-57.6

Quick check: hERG current change (%, negative = inhibition) at 10uM of Cc1oc2c(Cl)c(Cl)c(O)c(CN(C)C)c2c1C(=O)c1ccc(Cl)cc1 ?
-1.39

Quick check: hERG current change (%, negative = inhibition) at 10uM of O=C(N/N=C/c1ccccc1)c1ccc(N2CCCC2=O)cc1 ?
5.87

Quick check: hERG current change (%, negative = inhibition) at 10uM of Cc1cc(=O)[nH]c(/N=C(\N)Nc2cccc3ccccc23)n1 ?
11.5

Quick check: hERG current change (%, negative = inhibition) at 10uM of CSc1nc(N)nc(C(C)C)n1 ?
-5.59

Quick check: hERG current change (%, negative = inhibition) at 10uM of CCc1c(C(=O)NCCc2cccc(C)c2)[nH]c(C)c1C(C)=O ?
12.2

Quick check: hERG current change (%, negative = inhibition) at 10uM of CN(C)/C=N/c1cnc(C(=O)c2ccc(Cl)cc2)n1C ?
5.58

Quick check: hERG current change (%, negative = inhibition) at 10uM of Cc1ccccc1OCC(=O)N(Cc1nc(-c2ccccc2)no1)C(C)C ?
-15

Quick check: hERG current change (%, negative = inhibition) at 10uM of Cc1noc(C)c1C(=O)N1CCN(C(=O)c2sc3cc(Cl)ccc3c2Cl)CC1 ?
-47.4

Quick check: hERG current change (%, negative = inhibition) at 10uM of Cn1nc(-c2ccccc2)c(CSc2ccccc2Cl)c1Cl ?
6.46

Quick check: hERG current change (%, negative = inhibition) at 10uM of COc1ccc(Cl)cc1NC(=S)Nc1cccc(C)c1 ?
10.3

Quick check: hERG current change (%, negative = inhibition) at 10uM of CC(=O)Nc1ccc(NC(=O)c2c(-c3ccccc3)noc2C)cn1 ?
15.9

Quick check: hERG current change (%, negative = inhibition) at 10uM of COc1ccc(-n2c(C)cc(C)c(C(C)=O)c2=S)cc1 ?
-2.39

Quick check: hERG current change (%, negative = inhibition) at 10uM of COc1ccc(OCC(=O)Nc2cccc(S(=O)(=O)N(C)c3ccccc3)c2)c([N+](=O)[O-])c1 ?
-6.21

Quick check: hERG current change (%, negative = inhibition) at 10uM of CCn1c(/C=C/c2cc[n+](C)cc2)nc2ccccc21.[I-] ?
15

Quick check: hERG current change (%, negative = inhibition) at 10uM of N#CCc1nn(-c2ccccc2)c(N)c1C#N ?
5.46

Quick check: hERG current change (%, negative = inhibition) at 10uM of COC(=O)c1ccccc1NC(=S)NC(=O)COc1ccccc1Cl ?
-4.5

Quick check: hERG current change (%, negative = inhibition) at 10uM of O=C(c1cnn2c1NC(c1ccc(Br)cc1)CC2C(F)(F)F)N1CCN2CCCC2C1 (stereo not drawn) ?
-63.5

Quick check: hERG current change (%, negative = inhibition) at 10uM of C=CCn1c(=NC(=O)C2CCCCC2)sc2cc(NC(C)=O)ccc21 ?
-2.15

Quick check: hERG current change (%, negative = inhibition) at 10uM of COc1cc(C)ccc1OCCOc1c(C)cccc1Cl ?
2.01

Quick check: hERG current change (%, negative = inhibition) at 10uM of COc1ccccc1CCNC(=O)C1CCN(C(=O)/C=C/c2ccccc2)CC1 ?
-13.8

Quick check: hERG current change (%, negative = inhibition) at 10uM of COCCCn1c(SCC(N)=O)nnc1-c1ccccc1 ?
-0.75

Quick check: hERG current change (%, negative = inhibition) at 10uM of NS(=O)(=O)c1ccc(N/N=C/c2ccc[nH]2)c([N+](=O)[O-])c1 ?
0.228

Quick check: hERG current change (%, negative = inhibition) at 10uM of Cc1cc(NC(=O)CSc2nnc3c(C)cc4cc(C)c(C)cc4n23)no1 ?
20

Quick check: hERG current change (%, negative = inhibition) at 10uM of COc1ccccc1NC(=O)c1cnc(SC)nc1 ?
19.2

Quick check: hERG current change (%, negative = inhibition) at 10uM of CCc1ccc(NC(=O)c2cc(C(C)C)on2)cc1 ?
-27.3

Quick check: hERG current change (%, negative = inhibition) at 10uM of N#Cc1cnc(SCC(=O)N2CCCC2)nc1N ?
13.1

Quick check: hERG current change (%, negative = inhibition) at 10uM of O=C(c1sc2cccc(Cl)c2c1Cl)N1CCN(CCc2ccccn2)CC1 ?
-28.9

Quick check: hERG current change (%, negative = inhibition) at 10uM of O=C(c1sc2ccccc2c1Cl)N1CCN(c2ccccc2F)CC1 ?
-1.51

Quick check: hERG current change (%, negative = inhibition) at 10uM of O=C1CCCC2=C1C(c1ccccc1)C1C(=O)c3ccccc3C1=N2 (stereo not drawn) ?
6.16

Quick check: hERG current change (%, negative = inhibition) at 10uM of C#CCN1C(=O)C(O)(CC(=O)/C=C/C=C/c2ccccc2)c2ccccc21 (stereo not drawn) ?
21.6

Quick check: hERG current change (%, negative = inhibition) at 10uM of Br.COc1ccc(Nc2nc(-c3sc(NC(C)=O)nc3C)cs2)cc1 ?
3.32

Quick check: hERG current change (%, negative = inhibition) at 10uM of CCn1cc(/C=C/c2cc[n+](C)cc2)c2ccccc21.[I-] ?
-56.1

Quick check: hERG current change (%, negative = inhibition) at 10uM of COc1ccc(C(=O)N=c2sc3c(C)ccc(OC)c3n2C)cc1OC ?
7.38

Quick check: hERG current change (%, negative = inhibition) at 10uM of O=[N+]([O-])c1ccc2cn(-c3ccccc3)nc2c1 ?
-0.226

Quick check: hERG current change (%, negative = inhibition) at 10uM of COC(=O)c1c(NC(=O)c2cccc(S(=O)(=O)N3CCN(C)CC3)c2)sc(C)c1C ?
13.4

Quick check: hERG current change (%, negative = inhibition) at 10uM of CCOC(=O)N1CCN(c2nc(=S)n(-c3ccccc3)c(C)c2C(C)=O)CC1 ?
-2.56

Quick check: hERG current change (%, negative = inhibition) at 10uM of CC(C(=O)N1CCc2ccccc21)N1CCc2ccccc2C1 (stereo not drawn) ?
-18.9

Quick check: hERG current change (%, negative = inhibition) at 10uM of COc1ccc(Cl)cc1NS(=O)(=O)c1cccc(C(=O)NCC(c2ccco2)N(C)C)c1 (stereo not drawn) ?
-2.01

Quick check: hERG current change (%, negative = inhibition) at 10uM of Cc1cc(=O)n2ccsc2n1 ?
3.28

Quick check: hERG current change (%, negative = inhibition) at 10uM of O=C(c1cnn2c1NC(c1ccc(Br)cc1)CC2C(F)(F)F)N1CCN(C23CC4CC(CC(C4)C2)C3)CC1 (stereo not drawn) ?
-7.5

Origin of measurements: paper PMC4336329
